Each recorded value in this set is attributed to paper PMC9166712.

MEASURED_ON: MPO (Homo sapiens)
CONDITION_PARAMETERS: read-out: Azide anion IC50; Amplex Red 20 µM, MPO 1.2 nM, H2O2 10 µM, no NaCl, pH 7.4
pIC50: −log10 of the molar value.
RECORDED_METRIC: pIC50

| COMPOUND | RECORDED_METRIC | QUANTITATIVE_RESULT |
| --- | --- | --- |
| [N-]=[N+]=[N-] [Azide anion, sodium azide] | pIC50 | 5.98 |

----------
MEASURED_ON: MPO (Homo sapiens, UniProt P05164)
Sequence (P05164 279-745 limits assumed): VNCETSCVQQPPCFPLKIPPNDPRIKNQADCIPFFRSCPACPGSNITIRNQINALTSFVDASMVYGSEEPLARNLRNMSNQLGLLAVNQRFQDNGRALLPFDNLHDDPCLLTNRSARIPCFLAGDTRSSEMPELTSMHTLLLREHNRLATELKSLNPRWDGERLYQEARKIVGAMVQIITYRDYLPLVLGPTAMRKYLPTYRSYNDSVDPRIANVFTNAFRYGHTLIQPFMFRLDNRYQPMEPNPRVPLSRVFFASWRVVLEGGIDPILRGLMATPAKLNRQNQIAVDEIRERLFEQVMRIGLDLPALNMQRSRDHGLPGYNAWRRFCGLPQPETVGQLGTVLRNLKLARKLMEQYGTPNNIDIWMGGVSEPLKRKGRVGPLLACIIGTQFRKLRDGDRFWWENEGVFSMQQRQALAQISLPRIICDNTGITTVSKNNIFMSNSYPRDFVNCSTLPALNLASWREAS
Sequence (P05164 165-273 limits assumed): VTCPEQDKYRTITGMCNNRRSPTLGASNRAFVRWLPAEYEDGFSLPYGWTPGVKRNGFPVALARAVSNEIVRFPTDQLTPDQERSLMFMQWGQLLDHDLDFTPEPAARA
CONDITION_PARAMETERS: read-out: Azide anion IC50; APC probe 20 µM, MPO 1.2 nM, H2O2 10 µM, NaCl 0.1 M, pH 7.4

| MOLECULE | UNIT_DESCRIPTOR | IC50 |
| --- | --- | --- |
| [N-]=[N+]=[N-] [Azide anion, sodium azide] | µM | 1.94 |
